molecular target: Cyclic GMP-AMP synthase (Mus musculus); assay: cyclic GMP-AMP synthase inhibitors, mouse, primary biochemical chemiluminescence (AID 1259399); settings: recombinant cGAS, Kinase-Glo ATP depletion luminescence; at 12.5 µM
Among all 160,000 compounds or so, about 240 (0.15%) were called active. No stated cut-off is given here; in the data, active means inhibition above about 40%; inactive means the rest. The full list was thinned out, with actives kept by preference.
Outcome (select one): active, inactive

Past entries and their recorded results:
CCOc1ccc(/C=C2/SC(=S)N(CC(=O)O)C2=O)cc1 :: inactive
CC(C)OCCNC(=O)c1ccc(-c2cc(-c3ccccc3)n[nH]2)cc1 :: inactive
O=C(O)CN1C(=O)/C(=C\c2cccc(Cl)c2Cl)SC1=S :: inactive

IN: For this compound, state the assay outcome: Fc1ccc(CN2CCCn3cccc3C2c2ccoc2)cc1Cl (stereo unspecified)
OUT: inactive

IN: For this compound, state the assay outcome: CC1c2cccn2CCN1Cc1ccc(C#N)cc1F (stereo unspecified)
OUT: inactive
